Exercise: for every item that follows, state its recorded protein stability index.
B1: ATL3 (parent)
chain: YGLQGGMAFLDKRLQVKEHQHEEI

- Variants of: B1
- assay.comment: protein stability index of a GFP-peptide fusion (GPS, HEK-293T) (PSI 1-6); higher = more stable;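 note: lentivirally expressed fusions sorted by FACS into six bins by GFP to DsRed ratio, PSI derived from sequencing read proportions per bin multiplied by bin number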
- stated.conditions: c terminus: a fixed tail appended
I only need the number, thanks.

Recorded protein stability index (variant I24G ): 3.23

Recorded protein stability index (variant F9C ): 4.13

Recorded protein stability index (variant Y1S ): 4.46

Recorded protein stability index (variant Q20T ): 2.2

Recorded protein stability index (variant G6A ): 3.1

Recorded protein stability index (variant G5H ): 2.5

Recorded protein stability index (variant G6T ): 1.73

Recorded protein stability index (variant E22N ): 3.19

Recorded protein stability index (variant Q15C ): 3.47

Recorded protein stability index (variant L14D ): 2.16

Recorded protein stability index (variant V16W ): 2.33

Recorded protein stability index (variant L14C ): 3.61

Recorded protein stability index (variant E22S ): 3.33

Recorded protein stability index (variant Q4K ): 3.89

Recorded protein stability index (variant M7L ): 2.66

Recorded protein stability index (variant E18D ): 2.19

Recorded protein stability index (variant R13M ): 2.04

Recorded protein stability index (variant G2N ): 2.26

Recorded protein stability index (variant H19A ): 2.74

Recorded protein stability index (variant F9E ): 5

Recorded protein stability index (variant G5T ): 3.18

Recorded protein stability index (variant L14F ): 2.82

Recorded protein stability index (variant G5C ): 1.92

Recorded protein stability index (variant E22I ): 2.94

Recorded protein stability index (variant D11S ): 1.91

Recorded protein stability index (variant I24Y ): 4.04

Recorded protein stability index (variant A8T ): 3.38

Recorded protein stability index (variant A8Y ): 2.68

Recorded protein stability index (variant F9R ): 3.79

Recorded protein stability index (variant E23H ): 2.38

Recorded protein stability index (variant D11A ): 1.65

Recorded protein stability index (variant L10W ): 1.96

Recorded protein stability index (variant K17T ): 2.7

Recorded protein stability index (variant G6E ): 2.41

Recorded protein stability index (variant I24S ): 2.56

Recorded protein stability index (variant Q4V ): 2.25

Recorded protein stability index (variant K17H ): 2.63

Recorded protein stability index (variant H21I ): 3.39

Recorded protein stability index (variant L3M ): 2.31

Recorded protein stability index (variant F9V ): 4.23

Recorded protein stability index (variant Y1Q ): 4.79

Recorded protein stability index (variant G6W ): 1.97

Recorded protein stability index (variant E18C ): 2.58

Recorded protein stability index (variant E18W ): 3.87

Recorded protein stability index (variant D11K ): 2.27

Recorded protein stability index (variant A8L ): 2.67

Recorded protein stability index (variant M7E ): 3.23

Recorded protein stability index (variant E22C ): 2.48

Recorded protein stability index (variant Q4A ): 3.19

Recorded protein stability index (variant F9P ): 4.69

Recorded protein stability index (variant A8E ): 2.91

Recorded protein stability index (variant H21E ): 3.27

Recorded protein stability index (variant F9D ): 4.88

Recorded protein stability index (variant F9L ): 3.84

Recorded protein stability index (variant L14I ): 2.63

Recorded protein stability index (variant D11N ): 1.81

Recorded protein stability index (variant L3R ): 3.69

Recorded protein stability index (variant G2S ): 2.96

Recorded protein stability index (variant M7A ): 1.38

Recorded protein stability index (variant V16A ): 2.7

Recorded protein stability index (variant Q15P ): 2.47

Recorded protein stability index (variant E23R ): 2.99

Recorded protein stability index (variant G5D ): 2.34

Recorded protein stability index (variant I24V ): 2.5

Recorded protein stability index (variant V16R ): 2.02

Recorded protein stability index (variant G5Y ): 2.66

Recorded protein stability index (variant Q20I ): 2.56

Recorded protein stability index (variant K12D ): 1.75

Recorded protein stability index (variant R13L ): 2.3

Recorded protein stability index (variant E18A ): 3.26

Recorded protein stability index (variant E22V ): 1.45

Recorded protein stability index (variant V16L ): 2.81

Recorded protein stability index (variant L10V ): 2.57

Recorded protein stability index (variant Q20G ): 3.57

Recorded protein stability index (variant K17I ): 2.51

Recorded protein stability index (variant I24L ): 2.51

Recorded protein stability index (variant L10C ): 3.07

Recorded protein stability index (variant E23W ): 2.57

Recorded protein stability index (variant L10A ): 3.49

Recorded protein stability index (variant R13Q ): 1.86

Recorded protein stability index (variant R13A ): 2.47

Recorded protein stability index (variant G6H ): 1.63

Recorded protein stability index (variant R13Y ): 1.34

Recorded protein stability index (variant M7R ): 2.24

Recorded protein stability index (variant F9H ): 4.06

Recorded protein stability index (variant Q4G ): 1.98

Recorded protein stability index (variant E18F ): 3.53

Recorded protein stability index (variant F9I ): 3.82

Recorded protein stability index (variant A8I ): 2.71

Recorded protein stability index (variant Q15W ): 2.37

Recorded protein stability index (variant K12S ): 2.26
